Assay Comment: Rodent pharmacokinetic study
Format: in vivo, Male Wistar rats
Study Conditions: male, Wistar, plasma; rat, intravenous (bolus), 1 mg/kg
Quantity Name: half-life (h)

> print(dat)
                                   molecule  value.reported
1  Cn1cc(-c2ccc(Cc3cc(C(=O)N[C@H]4CCOC[C@@H]4O)nn4cccc34)cc2)cn1 (stereo in doubt)            3.42
2  O=C(N[C@H]1CCCC[C@@H]1O)c1cc(Cc2ccccc2)c2cccn2n1             0.7
3  Cc1cncc(-c2ccc(Cc3cc(C(=O)N[C@H]4CCCC[C@@H]4O)nn4cccc34)cc2)c1 (stereo in doubt)             1.7
4  O=C(N[C@H]1CCCC[C@@H]1O)c1cc(Cc2ccc(-c3ccncc3)cc2)c2cccn2n1 (stereo in doubt)             1.1
5  Cn1cc(-c2ccc(Cc3cc(C(=O)NCC(C)(C)O)nn4cccc34)cc2)cn1             0.5
6  O=C(NC1CCOCC1)c1cc(Cc2ccc(-c3ccncc3)cc2)c2cccn2n1             1.5
7  CC(C)(O)CNC(=O)c1cc(Cc2ccc(-c3cccnc3)cc2)c2cccn2n1             1.5
